target: PDLIM1, O00151; test: holdup assay; design: key: below the threshold = too weak to quantify, mostly under pKd 3.1 to 4; settings: plain residues with an end cap or a label only (N-terminal biotin on a linker: ado-ado)
Sequence (O00151 1-87): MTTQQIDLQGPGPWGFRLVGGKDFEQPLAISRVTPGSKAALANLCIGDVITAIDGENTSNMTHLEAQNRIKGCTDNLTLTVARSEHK
recorded.metric: pKd
Form field (numeric): enter value without unit.

{"columns": ["binder", "pKd"],
 "data": [
  ["HYPASPDSWV [CTNND2, Q9UQB3]", 4.06]
]}

Now turn to the next binder.
Q) # return recorded pKd for entry HDDYFYHDEL [RCN2, Q14257]
A) 3.83
